# Measured on: Ribosomal protein S6 kinase beta-1 (Homo sapiens) (UniProt P23443)
# Sequence (P23443 whole entry, looked up): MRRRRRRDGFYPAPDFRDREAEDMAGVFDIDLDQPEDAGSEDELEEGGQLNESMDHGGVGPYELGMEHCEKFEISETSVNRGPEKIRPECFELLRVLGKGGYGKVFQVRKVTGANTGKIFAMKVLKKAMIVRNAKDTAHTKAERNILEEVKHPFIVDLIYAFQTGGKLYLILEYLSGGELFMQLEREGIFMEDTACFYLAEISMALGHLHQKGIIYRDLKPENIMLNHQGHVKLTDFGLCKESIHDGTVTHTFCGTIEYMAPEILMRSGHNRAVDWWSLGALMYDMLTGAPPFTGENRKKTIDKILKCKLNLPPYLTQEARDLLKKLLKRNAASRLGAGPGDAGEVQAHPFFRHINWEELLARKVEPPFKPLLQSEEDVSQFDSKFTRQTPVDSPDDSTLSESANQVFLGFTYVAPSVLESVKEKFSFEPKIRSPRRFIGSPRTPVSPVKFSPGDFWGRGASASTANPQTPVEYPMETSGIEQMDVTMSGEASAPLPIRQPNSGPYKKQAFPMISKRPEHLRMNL
# Measurement context: at 1 µM;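 further: values are mean inhibition of p70S6K1, measured as part of the GSK PKIS panel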
Quantity measured: inhibition (%)

| Molecule | Units text | Quantitative result |
| --- | --- | --- |
| COc1ccc2cc(-c3c(-c4ccncc4)nc(-c4ccc([S+](C)[O-])cc4)n3C)ccc2c1 (stereo not given) | % | 2.88 |
| Cc1cccc(-c2n[nH]cc2-c2ccc3ncccc3n2)n1 | % | -0.68 |
| CCn1c(-c2nonc2N)nc2cncc(C(=O)N3CCNCC3)c21 | % | 4.44 |
| CCn1c(-c2nonc2N)nc2cnc(Oc3cccc(NC(=O)c4ccc(OCCN5CCOCC5)cc4)c3)cc21 | % | 93 |
| COC(=O)Nc1nc2cc(Oc3cccc(NC(=O)Nc4cc(C(F)(F)F)ccc4F)c3)ccc2[nH]1 | % | 1.88 |
| CCN1CCC(CC(=O)Nc2n[nH]c3nc(-c4cccs4)c(Br)cc23)CC1 | % | 0.59 |
| NS(=O)(=O)c1ccc(N/N=C2\C(=O)Nc3ccc(C(=O)NCCc4c[nH]cn4)cc32)cc1 | % | 8.75 |
| CCn1c(-c2nonc2N)nc2c(C#CC(C)(C)O)nc(CN3CCCC3)cc21 | % | 1.37 |
| COc1cc2ncn(-c3cc(O[C@@H](C)c4ccccc4Cl)c(C(N)=O)s3)c2cc1OC | % | 2.16 |
| CS(=O)(=O)CCNCc1ccc(-c2ccc3ncnc(Nc4ccc(OCc5cccc(F)c5)c(C(F)(F)F)c4)c3c2)o1 | % | 2.22 |
| Fc1cccc(COc2ccc(Nc3ncnc4cc(-c5ccc[nH]5)sc34)cc2Cl)c1 | % | 1.05 |
| O=C1NC(=O)C(c2ccc(Cl)cc2)=C1Nc1ccc(Cl)c(C(=O)O)c1 | % | -1.25 |
| Nc1nc(-c2ccc3c(c2)C(=Cc2cc(Br)c(O)c(Br)c2)C(=O)N3)cs1 | % | 1.12 |
| NCc1ccc(-c2nc(-c3ccc(Cl)c(O)c3)c(-c3ccncc3)[nH]2)cc1 | % | 0.71 |
| CCc1cccc(NC(=O)Nc2ccc(Oc3ccc4nc(NC(=O)OC)[nH]c4c3)cc2)c1 | % | 5.19 |
| Cc1nnc(-c2ccc(C)c(-c3ccc(C(=O)Nc4cccc(C#N)c4)cc3)c2)o1 | % | 1.91 |
| Cc1nn(C)c2cc(N(C)c3ccnc(Nc4cccc(S(N)(=O)=O)c4)n3)ccc12 | % | 2.85 |
| COc1cc(C)c(NC(=O)CN(C)C)cc1Nc1nc(Nc2cccc(F)c2C(N)=O)c2cc[nH]c2n1 | % | 3.01 |
| CN1CCC(C(=O)Nc2n[nH]c3nnc(-c4ccccc4)cc23)CC1 | % | 2.47 |
| Cc1cc(O)cc(C)c1/C=C/c1cncc(-c2nn[nH]n2)c1 | % | 1.97 |
